Assignment: determine reported viability, T/C for the given compounds.
- Test system: 266295-075-R-J1-PDC spheroid viability
- MEASUREMENT_DESCRIPTION: Anticancer human tumor 266295-075-R-J1-PDC patient-derived head and neck squamous carcinoma cell line growth inhibition [POLQ]
- CONDITIONS: second compound 1 µM; first compound 10 µM; hits give low values; spheroids with HUVEC and MSC
- Method: Multicellular complex tumor spheroid response to Polymerase (POL) inhibitors (novobiocin, ART-558, RP6685) in combination with a variety of drugs and investigational agents in selected tumor cell lines The POL inhibitors (novobiocin, ART-558, and RP6685) were evaluated both individually and in combination with standard of care and investigational anticancer small molecules within a complex spheroid model of solid tumors. . […]
Report only the number, with the unit % understood.

Field request: viability, T/C | item: CC(C)n1c(=O)n(C)c2cnc3cc(F)c(-c4ccc(OCCCN5CCCCC5)nc4)cc3c21 + COC1C(OC(N)=O)C(O)C(Oc2ccc3c(O)c(NC(=O)c4ccc(O)c(CC=C(C)C)c4)c(=O)oc3c2C)OC1(C)C
77.7

Field request: viability, T/C | item: Nc1ccn(C2OC(CO)C(O)C2(F)F)c(=O)n1 (stereo unspecified) + Cc1cccc(N(C)C(=O)C2C(O)CCN2c2nc(C)cc(C(F)(F)F)c2C#N)c1
80.2

Field request: viability, T/C | item: CC1COCCN1c1cc(-c2ccnn2C)c2ccnc(-c3ccn[nH]3)c2n1 (stereo unspecified) + Nc1ccc(C#CCN(C(=O)Cc2ncc(C(F)(F)F)cc2C(F)(F)F)c2ccc(F)cc2)nn1
26.8

Field request: viability, T/C | item: CCCS(=O)(=O)Nc1ccc(F)c(C(=O)c2c[nH]c3ncc(-c4ccc(Cl)cc4)cc23)c1F + Nc1ccc(C#CCN(C(=O)Cc2ncc(C(F)(F)F)cc2C(F)(F)F)c2ccc(F)cc2)nn1
145

Field request: viability, T/C | item: Nc1ccn(C2OC(CO)C(O)C2(F)F)c(=O)n1 (stereo unspecified) + Nc1ccc(C#CCN(C(=O)Cc2ncc(C(F)(F)F)cc2C(F)(F)F)c2ccc(F)cc2)nn1
82.5

Field request: viability, T/C | item: O=C(Nc1ccc(O)c(NS(=O)(=O)c2ccc(F)cc2)c1)c1ccc(-c2ccccc2)cc1 + COC1C(OC(N)=O)C(O)C(Oc2ccc3c(O)c(NC(=O)c4ccc(O)c(CC=C(C)C)c4)c(=O)oc3c2C)OC1(C)C
112

Field request: viability, T/C | item: COc1cccc2c1C(=O)c1c(O)c3c(c(O)c1C2=O)CC(O)(C(=O)CO)CC3OC1CC(N)C(O)C(C)O1 (stereo unspecified) + Nc1ccc(C#CCN(C(=O)Cc2ncc(C(F)(F)F)cc2C(F)(F)F)c2ccc(F)cc2)nn1
2.11

Field request: viability, T/C | item: CNCc1ccc(-c2[nH]c3cc(F)cc4c3c2CCNC4=O)cc1 + Cc1cccc(N(C)C(=O)C2C(O)CCN2c2nc(C)cc(C(F)(F)F)c2C#N)c1
123

Field request: viability, T/C | item: C=CC(=O)N1CCN(c2nc(=O)n(-c3c(C)ccnc3C(C)C)c3nc(-c4c(O)cccc4F)c(F)cc23)C(C)C1 (stereo unspecified) + Cc1cccc(N(C)C(=O)C2C(O)CCN2c2nc(C)cc(C(F)(F)F)c2C#N)c1
130

Field request: viability, T/C | item: CCCS(=O)(=O)Nc1ccc(F)c(C(=O)c2c[nH]c3ncc(-c4ccc(Cl)cc4)cc23)c1F + COC1C(OC(N)=O)C(O)C(Oc2ccc3c(O)c(NC(=O)c4ccc(O)c(CC=C(C)C)c4)c(=O)oc3c2C)OC1(C)C
172

Field request: viability, T/C | item: CC1COCCN1c1cc(-c2ccnn2C)c2ccnc(-c3ccn[nH]3)c2n1 (stereo unspecified) + Cc1cccc(N(C)C(=O)C2C(O)CCN2c2nc(C)cc(C(F)(F)F)c2C#N)c1
38.1

----------
- Tested on: 266295-075-R-J1-PDC spheroid viability
- MEASUREMENT_DESCRIPTION: Anticancer human tumor 266295-075-R-J1-PDC cell line growth inhibition [POLQ];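 also: spheroids exposed to compounds for seven days before readout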
- CONDITIONS: second compound 0.0316 µM; first compound 0.316 µM; hits give low values; spheroids with HUVEC and MSC
Assignment: determine reported viability, T/C for the given compounds.

Kindly state the measured viability, T/C obtained for C=CCn1c(=O)c2cnc(Nc3ccc(N4CCN(C)CC4)cc3)nc2n1-c1cccc(C(C)(C)O)n1 + Cc1cccc(N(C)C(=O)C2C(O)CCN2c2nc(C)cc(C(F)(F)F)c2C#N)c1 with 266295-075-R-J1-PDC spheroid viability.
80%

Kindly state the measured viability, T/C obtained for CC1COCCN1c1cc(C2(S(C)(=N)=O)CC2)nc(-c2ccnc3[nH]ccc23)n1 (stereo not drawn) + COC1C(OC(N)=O)C(O)C(Oc2ccc3c(O)c(NC(=O)c4ccc(O)c(CC=C(C)C)c4)c(=O)oc3c2C)OC1(C)C with 266295-075-R-J1-PDC spheroid viability.
105%

Kindly state the measured viability, T/C obtained for C=CC(=O)N1CCN(c2nc(=O)n(-c3c(C)ccnc3C(C)C)c3nc(-c4c(O)cccc4F)c(F)cc23)C(C)C1 (stereo not drawn) + COC1C(OC(N)=O)C(O)C(Oc2ccc3c(O)c(NC(=O)c4ccc(O)c(CC=C(C)C)c4)c(=O)oc3c2C)OC1(C)C with 266295-075-R-J1-PDC spheroid viability.
133%

----------
- Test system: 266295-075-R-J1-PDC spheroid viability
- MEASUREMENT_DESCRIPTION: Anticancer human tumor 266295-075-R-J1-PDC cell line growth inhibition [POLQ];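 also: spheroids exposed to compounds for seven days before readout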
- CONDITIONS: second compound 0.0316 µM; first compound 0.000316 µM; hits give low values; spheroids with HUVEC and MSC
MEASURED_METRIC: viability, T/C

Field request: viability, T/C | item: CC[C@@]1(O)C(=O)OCc2c1cc1n(c2=O)Cc2cc3c(CN(C)C)c(O)ccc3nc2-1 + Cc1cccc(N(C)C(=O)C2C(O)CCN2c2nc(C)cc(C(F)(F)F)c2C#N)c1
75%

Field request: viability, T/C | item: Cn1ncnc1[C@H]1c2n[nH]c(=O)c3cc(F)cc(c23)N[C@@H]1c1ccc(F)cc1 + Nc1ccc(C#CCN(C(=O)Cc2ncc(C(F)(F)F)cc2C(F)(F)F)c2ccc(F)cc2)nn1
86.1%

Field request: viability, T/C | item: CC[C@@]1(O)C(=O)OCc2c1cc1n(c2=O)Cc2cc3c(CN(C)C)c(O)ccc3nc2-1 + COC1C(OC(N)=O)C(O)C(Oc2ccc3c(O)c(NC(=O)c4ccc(O)c(CC=C(C)C)c4)c(=O)oc3c2C)OC1(C)C
84.1%

----------
- System: 266295-075-R-J1-PDC spheroid viability
- MEASUREMENT_DESCRIPTION: Anticancer human tumor 266295-075-R-J1-PDC cell line growth inhibition [POLQ];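 also: spheroids exposed to compounds for seven days before readout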
- CONDITIONS: second compound 0.316 µM; first compound 1 µM; hits give low values; spheroids with HUVEC and MSC
Assignment: determine reported viability, T/C for the given molecules.
Report only the number, with the unit % understood.

Kindly state the measured viability, T/C obtained for CCCS(=O)(=O)Nc1ccc(F)c(C(=O)c2c[nH]c3ncc(-c4ccc(Cl)cc4)cc23)c1F + Nc1ccc(C#CCN(C(=O)Cc2ncc(C(F)(F)F)cc2C(F)(F)F)c2ccc(F)cc2)nn1 with 266295-075-R-J1-PDC spheroid viability.
105

Kindly state the measured viability, T/C obtained for C=CCn1c(=O)c2cnc(Nc3ccc(N4CCN(C)CC4)cc3)nc2n1-c1cccc(C(C)(C)O)n1 + COC1C(OC(N)=O)C(O)C(Oc2ccc3c(O)c(NC(=O)c4ccc(O)c(CC=C(C)C)c4)c(=O)oc3c2C)OC1(C)C with 266295-075-R-J1-PDC spheroid viability.
70.6

Kindly state the measured viability, T/C obtained for COc1cc2cc(C(=O)CCC(=O)O)sc2cc1OC + Nc1ccc(C#CCN(C(=O)Cc2ncc(C(F)(F)F)cc2C(F)(F)F)c2ccc(F)cc2)nn1 with 266295-075-R-J1-PDC spheroid viability.
79.8

Kindly state the measured viability, T/C obtained for O=C(Nc1ccc(O)c(NS(=O)(=O)c2ccc(F)cc2)c1)c1ccc(-c2ccccc2)cc1 + Nc1ccc(C#CCN(C(=O)Cc2ncc(C(F)(F)F)cc2C(F)(F)F)c2ccc(F)cc2)nn1 with 266295-075-R-J1-PDC spheroid viability.
114

Kindly state the measured viability, T/C obtained for C#Cc1c(F)ccc2cc(O)cc(-c3ncc4c(N5CC6CCC(C5)N6)nc(OCC56CCCN5CC(F)C6)nc4c3F)c12 (stereo not given) + Nc1ccc(C#CCN(C(=O)Cc2ncc(C(F)(F)F)cc2C(F)(F)F)c2ccc(F)cc2)nn1 with 266295-075-R-J1-PDC spheroid viability.
84.1

Kindly state the measured viability, T/C obtained for CC1COCCN1c1cc(C2(O)CC3CCC(C2)O3)c2cnn(-c3ccn[nH]3)c2n1 (stereo not given) + COC1C(OC(N)=O)C(O)C(Oc2ccc3c(O)c(NC(=O)c4ccc(O)c(CC=C(C)C)c4)c(=O)oc3c2C)OC1(C)C with 266295-075-R-J1-PDC spheroid viability.
56.1

Kindly state the measured viability, T/C obtained for O=C(c1cc(Cc2n[nH]c(=O)c3ccccc23)ccc1F)N1CCN(C(=O)C2CC2)CC1 + COC1C(OC(N)=O)C(O)C(Oc2ccc3c(O)c(NC(=O)c4ccc(O)c(CC=C(C)C)c4)c(=O)oc3c2C)OC1(C)C with 266295-075-R-J1-PDC spheroid viability.
99.8

Kindly state the measured viability, T/C obtained for C#Cc1c(F)ccc2cc(O)cc(-c3ncc4c(N5CC6CCC(C5)N6)nc(OCC56CCCN5CC(F)C6)nc4c3F)c12 (stereo not given) + Cc1cccc(N(C)C(=O)C2C(O)CCN2c2nc(C)cc(C(F)(F)F)c2C#N)c1 with 266295-075-R-J1-PDC spheroid viability.
70.6

Kindly state the measured viability, T/C obtained for CC1COCCN1c1cc(C2(S(C)(=N)=O)CC2)nc(-c2ccnc3[nH]ccc23)n1 (stereo not given) + COC1C(OC(N)=O)C(O)C(Oc2ccc3c(O)c(NC(=O)c4ccc(O)c(CC=C(C)C)c4)c(=O)oc3c2C)OC1(C)C with 266295-075-R-J1-PDC spheroid viability.
81.1

Kindly state the measured viability, T/C obtained for COc1cccc2c1C(=O)c1c(O)c3c(c(O)c1C2=O)CC(O)(C(=O)CO)CC3OC1CC(N)C(O)C(C)O1 (stereo not given) + Cc1cccc(N(C)C(=O)C2C(O)CCN2c2nc(C)cc(C(F)(F)F)c2C#N)c1 with 266295-075-R-J1-PDC spheroid viability.
60.3
